These entries and their values trace back to patent US11667602B2.

experiment: Solubility (Test F); assay type: physicochemical; conditions: arithmetic mean if run multiple times
Could you please report measured solubility for the items listed next?
Numbers only here, please. The scale is µM.

Entry under review: COc1cc(F)c(-c2cccc(C(=O)O)c2)cc1C(=O)N[C@H]1[C@@H](C(=O)Nc2ccc(F)c(S(=O)(=O)C(F)(F)F)c2)[C@@H]2C=C[C@H]1C2 (racemic) . Reported solubility?
8

Entry under review: COc1cc(F)c(O[C@H]2CC[C@@](C)(C(=O)O)CC2)cc1C(=O)N[C@@H]1[C@H](O)CC[C@@H]1C(=O)Nc1cccc(S(=O)(=O)C(F)(F)F)c1 (racemic) . Reported solubility?
21

Entry under review: COc1cc(C#N)c(O[C@H]2CC[C@@](C)(C(=O)O)CC2)cc1C(=O)N[C@@H]1[C@H]2CC[C@H](C2)[C@@H]1C(=O)NCC1(CO)CCCC1 . Reported solubility?
810

----------
experiment: Human Hepatocyte Stability (Test D); format: in vitro ADME; details: human, cryopreserved pooled human hepatocytes (LiverPool 10-Donor), geometric mean if run multiple times
// returns not satisfied unless hepatocyte CLint at 1 µM is strictly below 7 µL/min/1e6 cells, in which case satisfied

Dear reviewer, please state whether COC[C@]1(C(=O)O)CC[C@@H](Oc2cc(C(=O)N[C@@H]3[C@H]4CC[C@H](C4)[C@@H]3C(=O)Nc3cccc(S(=O)(=O)C(F)(F)F)c3)c(OC)cc2F)CC1 has hepatocyte CLint at 1 µM strictly beneath 7 µL/min/1e6 cells.
not satisfied

Dear reviewer, please state whether COc1cc(F)c(O[C@H]2CC[C@@H](C(=O)O)CC2)cc1C(=O)N[C@H]1[C@@H](C(=O)Nc2ccc(F)c(S(F)(F)(F)(F)F)c2)[C@@H]2C=C[C@H]1C2 has hepatocyte CLint at 1 µM strictly beneath 7 µL/min/1e6 cells.
not satisfied

Dear reviewer, please state whether COc1cc(F)c(O[C@H]2CC[C@@](C)(C(=O)O)CC2)cc1C(=O)N[C@H]1[C@@H]2CC[C@@H](C2)[C@H]1C(=O)Nc1ccc(F)c(S(F)(F)(F)(F)F)c1 has hepatocyte CLint at 1 µM strictly beneath 7 µL/min/1e6 cells.
not satisfied

Dear reviewer, please state whether COc1cc(F)c(O[C@H]2C[C@H](C(=O)O)C2)cc1C(=O)NC1[C@H]2CC[C@H](C2)[C@@H]1C(=O)Nc1cccc(S(=O)(=O)C(F)(F)F)c1 (some centres unmarked) has hepatocyte CLint at 1 µM strictly beneath 7 µL/min/1e6 cells.
not satisfied

Dear reviewer, please state whether COc1cc(F)c(O[C@H]2CC[C@@](C)(C(=O)O)CC2)cc1C(=O)NC1C2CCC(C2)C1C(=O)Nc1cccc(S(=O)(=O)C(F)(F)F)c1 (single isomer, unassigned) has hepatocyte CLint at 1 µM strictly beneath 7 µL/min/1e6 cells.
satisfied

Dear reviewer, please state whether COc1cc(F)c(O[C@H]2CC[C@@](C)(C(=O)O)CC2)cc1C(=O)NC1CCOCC1C(=O)Nc1cccc(S(=O)(=O)C(F)(F)F)c1 (single isomer, unassigned) has hepatocyte CLint at 1 µM strictly beneath 7 µL/min/1e6 cells.
satisfied

Dear reviewer, please state whether CCOc1cc(F)c(O[C@H]2CC[C@@](C)(C(=O)O)CC2)cc1C(=O)N[C@@H]1[C@H]2CC[C@H](C2)[C@@H]1C(=O)NCC1(C)CCC1 has hepatocyte CLint at 1 µM strictly beneath 7 µL/min/1e6 cells.
not satisfied

Dear reviewer, please state whether COc1cc(F)c(O[C@H]2CC[C@@](C)(C(=O)O)CC2)cc1C(=O)Nc1cnccc1C(=O)NCC1(C)CCC1 has hepatocyte CLint at 1 µM strictly beneath 7 µL/min/1e6 cells.
satisfied

Dear reviewer, please state whether COc1cc(Cl)c(O[C@H]2CC[C@@](C)(C(=O)O)CC2)cc1C(=O)N[C@@H]1[C@H]2CC[C@H](C2)[C@@H]1C(=O)NCC(C)(C)C(F)(F)F has hepatocyte CLint at 1 µM strictly beneath 7 µL/min/1e6 cells.
satisfied

Dear reviewer, please state whether COc1cc(C#N)c(O[C@H]2CC[C@@](C)(C(=O)O)CC2)cc1C(=O)N[C@@H]1[C@H]2CC[C@H](C2)[C@@H]1C(=O)NCC1(C)CCC1 has hepatocyte CLint at 1 µM strictly beneath 7 µL/min/1e6 cells.
satisfied

----------
Could you please report measured Test A Sinf for the items listed next?
target: UniProt Q9HBX9; experiment: RXFP1 Hu cAMP (Test A); type: cell-based; design: expressed in transfected cells; host or cells: Jump-In T-REx CHO-K1 cells (ThermoFisher), induced with 10 ng/ml doxycycline for 24 h; conditions: RXFP1 Hu cAMP
Sequence (Q9HBX9 whole entry): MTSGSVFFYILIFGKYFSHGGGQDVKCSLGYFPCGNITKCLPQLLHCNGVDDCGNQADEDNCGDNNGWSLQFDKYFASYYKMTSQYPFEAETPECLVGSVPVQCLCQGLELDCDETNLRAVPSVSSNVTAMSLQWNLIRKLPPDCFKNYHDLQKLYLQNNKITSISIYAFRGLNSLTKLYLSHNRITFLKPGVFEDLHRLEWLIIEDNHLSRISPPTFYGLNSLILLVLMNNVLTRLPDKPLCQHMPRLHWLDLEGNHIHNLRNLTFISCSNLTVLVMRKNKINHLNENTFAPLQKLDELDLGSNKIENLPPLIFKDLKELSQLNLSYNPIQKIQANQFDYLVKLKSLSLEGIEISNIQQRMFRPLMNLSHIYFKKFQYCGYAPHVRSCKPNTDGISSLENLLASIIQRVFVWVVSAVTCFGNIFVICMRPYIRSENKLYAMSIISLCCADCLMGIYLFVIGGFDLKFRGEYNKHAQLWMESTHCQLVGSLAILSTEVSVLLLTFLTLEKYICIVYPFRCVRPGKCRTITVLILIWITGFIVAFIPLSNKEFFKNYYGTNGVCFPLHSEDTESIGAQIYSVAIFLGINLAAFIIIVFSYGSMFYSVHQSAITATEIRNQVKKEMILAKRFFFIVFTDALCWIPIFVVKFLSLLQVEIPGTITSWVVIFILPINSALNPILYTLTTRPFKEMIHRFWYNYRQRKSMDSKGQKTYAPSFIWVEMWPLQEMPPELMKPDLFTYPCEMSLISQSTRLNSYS
Numbers only here, please. The scale is %.

Entry under review: COc1cc(C#N)c(O[C@H]2CC[C@@](C)(C(=O)O)CC2)cc1C(=O)N[C@@H]1[C@H]2CC[C@H](C2)[C@@H]1C(=O)N[C@@H](C)C(C)C [Example 127] . Reported Test A Sinf?
71

Entry under review: COc1cc(C#N)c(O[C@H]2CC[C@@](C)(C(=O)O)CC2)cc1C(=O)Nc1cc(C)ccc1C(=O)NCC1(C)CC1 [Example 174] . Reported Test A Sinf?
132

Entry under review: COc1cc(C#N)c(O[C@H]2CC[C@@](C)(C(=O)O)CC2)cc1C(=O)N[C@H]1[C@@H](C(=O)NCC2(C)CCC2)[C@H]2CC[C@@H]1O2 (racemic) [Example 333] . Reported Test A Sinf?
98

Entry under review: COc1cc(C#N)c(O[C@H]2CC[C@@](C)(C(=O)O)CC2)cc1C(=O)Nc1cc(C)ccc1C(=O)NCC1(F)CCC1 [Example 172] . Reported Test A Sinf?
125

Entry under review: COc1cc(F)c(OCc2ccccc2C(=O)O)cc1C(=O)N[C@H]1[C@@H](C(=O)Nc2cccc(S(=O)(=O)C(F)(F)F)c2)[C@@H]2C=C[C@H]1C2 (racemic) [Example 448] . Reported Test A Sinf?
77

Entry under review: COc1cc(F)c(-c2ccc(C(=O)O)cc2)cc1C(=O)N[C@H]1[C@@H](C(=O)Nc2cc(F)cc(S(F)(F)(F)(F)F)c2)[C@@H]2C=C[C@H]1C2 (racemic) [Example 298] . Reported Test A Sinf?
82

Entry under review: COc1cc(F)c(-c2ncc(CCC(=O)O)cn2)cc1C(=O)N[C@@H]1[C@H]2CC[C@H](C2)[C@@H]1C(=O)Nc1cccc(S(=O)(=O)C(F)(F)F)c1 [Example 323] . Reported Test A Sinf?
108

Entry under review: COc1cc(C#N)c(O[C@H]2CC[C@@](C)(C(=O)O)CC2)cc1C(=O)N[C@@H]1[C@H]2CC[C@H](C2)[C@@H]1C(=O)NCCC(C)(C)C [Example 130] . Reported Test A Sinf?
95

Entry under review: COc1cc(F)c(O[C@H]2CC[C@@](C)(C(=O)O)CC2)cc1C(=O)N[C@@H]1[C@H]2OCO[C@H]2C[C@@H]1C(=O)Nc1cccc(S(=O)(=O)C(F)(F)F)c1 (racemic) [Example 395] . Reported Test A Sinf?
101

Entry under review: CCCNC(=O)[C@H]1[C@@H]2CC[C@@H](C2)[C@H]1NC(=O)c1cc(O[C@H]2CC[C@@](C)(C(=O)O)CC2)c(C#N)cc1OC [Example 116] . Reported Test A Sinf?
106

Entry under review: COc1cc(Cl)c(O[C@H]2CC[C@@](C)(C(=O)O)CC2)cc1C(=O)N[C@@H]1[C@H]2CC[C@H](C2)[C@@H]1C(=O)NCC(C)(C)C [Example 412] . Reported Test A Sinf?
110

----------
test: Human Plasma Protein Binding (Test B); type: in vitro ADME; conditions: fraction unbound (fu)
endpoint-name: Test B Human Plasma Protein Binding (% free)
Numbers only here, please. The scale is % free.

Entry under review: COc1cc(F)c(-c2ccc(C(=O)O)cc2)cc1C(=O)N[C@H]1[C@@H](C(=O)Nc2cccc(S(=O)(=O)C(F)(F)F)c2)[C@@H]2C=C[C@H]1C2 (single isomer, unassigned) [Example 552] . Reported Test B Human Plasma Protein Binding (% free)?
0.060

Entry under review: COc1cc(C#N)c(O[C@H]2CC[C@@](C)(C(=O)O)CC2)cc1C(=O)N[C@@H]1[C@H]2CC[C@H](C2)[C@@H]1C(=O)NC(C)(C)CF . Reported Test B Human Plasma Protein Binding (% free)?
21

Entry under review: CC1(CNC(=O)[C@H]2[C@@H]3CC[C@@H](C3)[C@H]2NC(=O)c2cc(O[C@H]3CC[C@@](C)(C(=O)O)CC3)c(C#N)cc2F)CCC1 . Reported Test B Human Plasma Protein Binding (% free)?
2.7

Entry under review: COc1cc(C#N)c(OC2CCC(C)(C(=O)O)CC2)cc1C(=O)NC1C(C(=O)NCC2(C)CCC2)C2CCC1N2CCC(F)(F)F (single isomer, unassigned) . Reported Test B Human Plasma Protein Binding (% free)?
3.3
